Hey, just so you know, these numbers are from PubChem BioAssay.

Tested System: Steroidogenic factor 1 (Homo sapiens) (UniProt Q13285)
Sequence (Q13285 whole entry, looked up): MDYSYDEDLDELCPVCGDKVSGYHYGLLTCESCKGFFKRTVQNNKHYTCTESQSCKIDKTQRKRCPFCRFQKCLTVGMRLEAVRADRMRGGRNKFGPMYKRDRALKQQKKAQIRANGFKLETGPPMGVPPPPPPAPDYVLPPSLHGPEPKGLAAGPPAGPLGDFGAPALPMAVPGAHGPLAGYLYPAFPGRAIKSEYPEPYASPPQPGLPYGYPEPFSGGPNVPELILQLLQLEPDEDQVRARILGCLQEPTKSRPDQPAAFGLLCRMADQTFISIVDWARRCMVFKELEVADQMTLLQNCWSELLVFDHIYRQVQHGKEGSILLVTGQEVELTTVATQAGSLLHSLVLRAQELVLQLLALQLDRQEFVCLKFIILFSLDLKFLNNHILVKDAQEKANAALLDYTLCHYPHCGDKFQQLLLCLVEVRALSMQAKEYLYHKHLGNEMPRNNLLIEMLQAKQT
Protocol Text: SF1 (NR5A1) inverse agonists, counter-screen for LRH-1 inverse agonist project, cell-based, luminescence, high throughput (AID 651614);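 note: cells cotransfected with StAR promoter reporter and SF1 expression vector; 0% = vehicle on cells with receptor and 100% = vehicle on cells lacking receptor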
Run Parameters: cell-based SF1 luciferase reporter, at 3.6 µM, stronger effect = higher value
Respond with TRUE for inhibition values of 40% and above, FALSE for values below.

1. Cc1ccc(/C=C2/CNC/C(=C/c3ccc(C)cc3)C2=O)cc1 | TRUE
2. CCOc1cc(/C=C2/C(=N)N3OC(C)=CC3=NC2=O)ccc1OCCOc1ccccc1 | FALSE
3. O=C(COc1ccc(S(=O)(=O)N2CCCC2)cc1Cl)Nc1ccc2c(c1)OCO2 | FALSE
4. CC(=O)c1ccc(NC(=O)CSC2=NS(=O)(=O)c3cc(Cl)ccc3N2)cc1 | TRUE
5. Cc1scc(C(=O)N/N=C/c2ccc([N+](=O)[O-])o2)c1C | TRUE
6. CCCN(CC(=O)Nc1ccc(C(C)=O)cc1)CC(=O)Nc1ccccc1C | TRUE
7. COc1ccc(-c2cc(-c3nc4ccccn4c3NCc3ccccc3)ccc2OC)cc1 | TRUE
8. O=C(CCl)Nc1cccc2ncccc12 | TRUE
9. COC(=O)c1ccc(NC(=O)CN2CCC(NC(=O)c3ccccc3F)CC2)cc1 | TRUE

====

Collected inhibition values appear next to each entry.
Protocol Text: StAR promoter reporter inhibitors, counter-screen for LRH-1 inverse agonist project, cell-based, luminescence, high throughput (AID 651611)
Run Parameters: StAR promoter luciferase reporter counterscreen, at 3.6 µM, stronger effect = higher value
Calls of active or inactive are those of the source. Cut-off read from the data, not from the text of the source: active = inhibition above about 28%; inactive = the rest.
Endpoint: inhibition

1) CC(C)C(=O)N1CCN(c2ccccc2NC(=O)c2ccc([N+](=O)[O-])o2)CC1 | 10.9% (inactive)
2) COCC(=O)NC1CCN(CC(=O)Nc2ccc(OC)cc2[N+](=O)[O-])CC1 | 14.2% (inactive)
3) C[C@@H]1C[C@@H]2O[C@H]2/C=C\C=C\C(=O)Cc2c(Cl)c(O)cc(O)c2C(=O)O1 | 55.7% (active)
4) CCN1/C(=C/c2ccc3ccccc3[n+]2CC)C=Cc2ccccc21 | 78.7% (active)
5) O=C(c1ccc([N+](=O)[O-])o1)N1CCN(c2nc3c(F)cc(F)cc3s2)CC1 | -14.9% (inactive)
6) Cc1[nH]c2ccccc2c(=O)c1C(=O)/C=C/c1ccccc1 | 76.2% (active)
7) COc1cc(/C=C2/SC(=Nc3ccc(O)cc3)NC2=O)ccc1O | 38.7% (active)
8) CC1CCCC(C)N1C(=O)COC(=O)CCC1CCCC1 (centres undefined) | 3.25% (inactive)
9) O=C(CCl)Nc1cc(SCC(O)CO)cc([N+](=O)[O-])c1 (centres undefined) | 95.8% (active)
10) COc1ccc(CCNC(=O)COC(=O)C2CC2C)cc1 (centres undefined) | 3.36% (inactive)
11) COc1cc(NC(=O)COc2cc(O)c3c(c2)OC(C)(C)CC3=O)cc(OC)c1OC | 50.4% (active)
12) Cc1cc(C)c2c(C)c(C(=O)NCc3ccncc3)oc2c1 | 9.09% (inactive)
13) COC(=O)c1cc2c(-c3ccccc3)cc3ccccn3c-2c1C(=O)OC | 11.5% (inactive)
14) COC(=O)CCn1nnc(-c2ccc(C(C)C)cc2)n1 | 48.7% (active)
15) CCOC(=O)c1ccc(N2CCN(C(=O)c3ccccc3)CC2)c(NC(=O)c2ccco2)c1 | 26.2% (inactive)
16) S=C(Nc1cccnc1)Nc1cccc2cnccc12 | 9.29% (inactive)
17) COc1cc(N)c2ncccc2c1Br | 16.6% (inactive)
18) O=C(Nc1ccc(N2CCN(C(=O)c3cccs3)CC2)cc1)c1ccc([N+](=O)[O-])o1 | 43.4% (active)
19) CCCCCCCCCCOC(=O)Cn1c(COc2ccccc2C)[n+](C)c2ccccc21 | -2.25% (inactive)
20) COc1ccc(C=C2CS(=O)(=O)CC(=Cc3ccc(OC)cc3)C2=O)cc1 | 43.9% (active)
21) COCc1cc(C)nc(SCC(=O)Nc2cc3c(cc2C#N)OCO3)c1C#N | -4.84% (inactive)
22) O=[N+]([O-])c1ccc(-c2nc(-c3cccs3)c(-c3cccs3)[nH]2)cc1 | 15.5% (inactive)
23) CCCCCc1ccc(OCCCC[n+]2cccc(C)c2)c(CCCCC)c1 | 31.7% (active)
24) COC(=O)c1ccc(COC(=O)c2[nH]c(C)c(C(C)=O)c2C)o1 | 12.8% (inactive)
25) COc1cccc(C=Nc2ccc3c(c2)OCCO3)c1O | -5.52% (inactive)
26) CCN(CC)c1ccc(NC(=O)CSc2nnc(N)s2)cc1C | -2.14% (inactive)
27) COC(=O)c1c(NC(=O)c2cccc([N+](=O)[O-])c2)sc(C(N)=O)c1C | 46.9% (active)
28) CC(=O)Nc1ccc(NC(=O)CSc2nnc(COc3ccccc3C)n2CC2CCCO2)cc1 (centres undefined) | 16.5% (inactive)
29) CCOc1c(Br)cc(CNc2ccc3c(c2)OCCO3)cc1OC | 3.55% (inactive)
30) O=C(CSc1nc2sc3c(c2c(=O)n1-c1ccccc1)CCCC3)NCc1ccco1 | 8.53% (inactive)
31) CCOC(=O)C1CCCN(S(=O)(=O)c2ccc(S(=O)(=O)N(CC)CC)cc2)C1 (centres undefined) | 18.1% (inactive)
32) N#CC1=C(N)C(C#N)(C#N)[C@H](c2c(F)cccc2F)[C@H]2CC3(CC=C12)OCCO3 | 16.1% (inactive)
33) CCOC(=O)C1CCN(Cc2cc(Cl)c3ccccc3c2O)CC1 | 1.44% (inactive)
34) CCOC(=O)N1CCN(C(=O)CCl)CC1 | 11% (inactive)
35) O=C(CN(Cc1ccccc1)C(=O)CCl)c1cccc(Br)c1 | 19% (inactive)
36) O=C(CC1C(=O)NCCN1C(=S)Nc1ccccc1)Nc1ccc2c(c1)OCCO2 (centres undefined) | 10.3% (inactive)
37) CC(C)(C)C(=O)Nc1cc2nn(-c3ccccc3)nc2cc1Cl | 48.3% (active)
38) COc1cc2c(cc1OC)-c1c(OC)c(OC)cc3ccnc(c13)C2=O | 41.2% (active)
39) Cc1[nH][nH]c(=O)c1N=Nc1ccc(S(N)(=O)=O)cc1 | 20.7% (inactive)
40) O=C(Nc1ccc(Cc2ccncc2)cc1)c1cccc([N+](=O)[O-])c1 | -10.2% (inactive)
41) Nc1nc(-c2ccccc2)c(CCCOc2ccc(NC(=O)CBr)cc2)c(=O)[nH]1 | 15.7% (inactive)
42) CCN(CC)c1ccc(C(NC(=O)C(C)C)c2ccc3cccnc3c2O)cc1 (centres undefined) | 86.3% (active)
43) Cc1ccc2c(c1C)-c1c(ccc(C)c1C)C(=O)C2=O | 64.4% (active)
44) Cn1c(CCN2CCN(c3ccccn3)CC2)nc2cc(NC(=O)COc3ccc(Cl)cc3)ccc21 | 29.2% (active)
